Record form. Attribute: MIC. Fill in for each entry.
Write the answer as a number in mg/L, unit excluded.

Observed MIC on M. tuberculosis H37 RV, entry C[C@@H]1[C@@H](C)Oc2c3c(c4c(-c5ccccc5)cc(=O)oc4c2[C@@H]1O)OC(C)(C)C=C3 [Inophyllum P] , equals 5.7

Observed MIC on M. tuberculosis H37 RV, entry [H]/N=C(/N)N[C@H]1[C@H](O)[C@@H](O)[C@H](O[C@@H]2O[C@@H](C)[C@](O)(C=O)[C@H]2O[C@@H]2O[C@@H](CO)[C@H](O)[C@@H](O)[C@@H]2NC)[C@@H](N/C(N)=N\[H])[C@@H]1O [Streptomycin, reference compound] , equals 0.4

Data provenance is paper PMC7910904.
